All values here come from patent US10851116B2.

# assayed.system: JAK3 (Homo sapiens (Human), UniProt P52333)
# Sequence (P52333 822-1111): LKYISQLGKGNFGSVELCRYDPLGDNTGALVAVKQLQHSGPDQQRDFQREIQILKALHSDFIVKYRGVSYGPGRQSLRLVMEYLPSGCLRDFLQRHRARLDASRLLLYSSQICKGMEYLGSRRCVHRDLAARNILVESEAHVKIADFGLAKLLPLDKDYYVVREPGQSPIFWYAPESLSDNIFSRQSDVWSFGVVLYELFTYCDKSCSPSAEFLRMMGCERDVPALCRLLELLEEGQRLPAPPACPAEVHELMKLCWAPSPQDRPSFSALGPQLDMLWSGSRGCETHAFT
# test: JAK kinase assay (HTRF), JAK3
# test.conditions: catalytic domain, His-tag, ATP at Km (2 μM)
Threshold check on EC50: strictly below 70 nM is TRUE; on or above 70 nM is FALSE.

C[C@]12CN(c3ncc(Br)cc3CO)C[C@H]1CCN(c1ncnc3[nH]ccc13)C2 (racemic) [Example 37]	TRUE

# input for lookup
input: Consider the compound C[C@]12CN(c3ncccc3CO)C[C@H]1CCN(c1ncnc3[nH]ccc13)C2 (racemic) [Example 36] . Is its EC50 strictly less than 70 nM?
output: FALSE
